compounds and their reported IC50
- Assay system: EGFR (UniProt P00533)
- Sequence (P00533 whole entry, looked up): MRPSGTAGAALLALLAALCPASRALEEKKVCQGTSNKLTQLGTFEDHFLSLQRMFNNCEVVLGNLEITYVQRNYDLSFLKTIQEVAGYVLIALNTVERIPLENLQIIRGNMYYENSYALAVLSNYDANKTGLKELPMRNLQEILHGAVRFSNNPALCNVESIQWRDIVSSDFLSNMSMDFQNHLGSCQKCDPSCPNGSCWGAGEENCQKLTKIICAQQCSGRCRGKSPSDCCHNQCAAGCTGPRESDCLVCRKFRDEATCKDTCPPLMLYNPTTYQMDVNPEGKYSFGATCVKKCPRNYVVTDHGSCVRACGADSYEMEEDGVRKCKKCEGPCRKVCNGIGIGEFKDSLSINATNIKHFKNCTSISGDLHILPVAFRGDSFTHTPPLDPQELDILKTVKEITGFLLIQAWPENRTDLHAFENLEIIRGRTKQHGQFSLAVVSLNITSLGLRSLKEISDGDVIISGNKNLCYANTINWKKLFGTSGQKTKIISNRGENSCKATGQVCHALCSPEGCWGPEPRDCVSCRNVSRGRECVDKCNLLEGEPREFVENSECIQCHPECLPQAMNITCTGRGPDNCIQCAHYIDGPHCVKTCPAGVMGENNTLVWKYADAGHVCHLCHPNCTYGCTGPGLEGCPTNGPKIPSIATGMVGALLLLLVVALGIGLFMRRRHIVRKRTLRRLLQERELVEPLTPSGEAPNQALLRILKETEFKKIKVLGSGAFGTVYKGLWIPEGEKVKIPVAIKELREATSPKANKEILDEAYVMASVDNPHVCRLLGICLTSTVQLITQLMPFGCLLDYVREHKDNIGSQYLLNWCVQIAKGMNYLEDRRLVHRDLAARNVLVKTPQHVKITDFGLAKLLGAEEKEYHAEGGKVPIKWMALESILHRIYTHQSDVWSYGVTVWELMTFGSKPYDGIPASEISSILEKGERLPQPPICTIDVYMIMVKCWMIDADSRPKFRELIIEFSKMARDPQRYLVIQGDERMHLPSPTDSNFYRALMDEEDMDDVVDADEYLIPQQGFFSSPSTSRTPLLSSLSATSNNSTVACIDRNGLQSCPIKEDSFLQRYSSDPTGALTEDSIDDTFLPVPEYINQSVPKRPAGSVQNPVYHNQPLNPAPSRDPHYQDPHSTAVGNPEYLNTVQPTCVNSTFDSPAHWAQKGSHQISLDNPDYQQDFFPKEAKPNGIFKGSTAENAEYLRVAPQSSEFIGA

Look over these answered cases.
> print(dat)
                              smiles.string           result
1  COc1cc(Nc2ncnc(-n3c(NCCCc4ccccc4)nc4ccccc43)n2)cc(OC)c1OC       > 4.5 mg/L
2  CCOc1ccc(Nc2ncnc(Nc3ccc(OCc4ccccc4)cc3)n2)cc1OCC  0.4 to 2.4 mg/L
3  COc1ccc(Nc2ncnc(Nc3ccc(OCc4ccccc4)cc3)n2)cc1       > 4.5 mg/L
4  COc1cc(Nc2ncnc(-c3c(O)[nH]c4ccccc34)n2)cc(OC)c1OC       > 4.5 mg/L
5  COc1cc(Nc2ncnc(Nc3cc(-c4cccc(C(F)(F)F)c4)n[nH]3)n2)cc(OC)c1OC  2.4 to 3.5 mg/L
6  COc1cc(Nc2ncnc(Nc3ccc(O)cc3)n2)cc(OC)c1OC  0.4 to 2.4 mg/L
7  COc1cc(Nc2ncnc(N(C)c3cccc(Cl)c3)n2)cc(OC)c1       < 0.4 mg/L
8  c1ccc(Cn2ncc3cc(Nc4ncnc(NCC5CCCCC5)n4)ccc32)cc1       > 4.5 mg/L

# context switch: different compound, same IC50
Exercise: Give the reported IC50 for COc1cc(Nc2ncnc(-c3cccc(Cl)c3)n2)cc(OC)c1OC (system: EGFR (UniProt P00533)).
Solution: > 4.5 mg/L
